Tested on: pdr5 ypt1^ts cells
protocol-text: microbe, parasite or virus in culture
Type: cell-based, yeast
experimental-context: Table 3; 50 uM compound; 37° C.; background (0 uM) 0.077
Output schema: class label derived from optical density, 50 uM. Mapping: low (below 0.2), middle (0.2 to below 0.4), high (0.4 or more)

Cc1ccc2c(c1)CC[C@H]1CC(=O)CC[C@]21C    high
CC(CCC(=O)O)[C@H]1CCC2C3CC[C@H]4C[C@H](O)CC[C@]4(C)C3C[C@H](O)[C@@]21C (stereo partly drawn) [DEOXY- CHOLIC ACID, reference compound]    low
Cc1[nH]c2ccccc2c1CN(C)C    middle
Nc1nc2ncc(=O)[nH]c2c(=O)[nH]1    low
O=C(/C=C/C=C/c1ccc2c(c1)OCO2)N1CCCCC1    middle
CCc1cccc(CC)c1N(COC)C(=O)CCl    high
COC(=O)C[C@H]1C(C)(C)C2(O)OC34CC2C(=O)[C@]1(C)C3CC[C@]1(C)C4=CC(=O)O[C@H]1c1ccoc1 (stereo partly drawn) [8beta- HYDROXY- CARAPIN, 3,8- HEMIACETAL]    high
CNC(=O)Oc1ccccc1OC(C)C    middle
COC(=O)C[C@H]1C(C)(C)[C@@H](OC(C)=O)[C@@H]2CC3C(CC[C@]4(C)C3CC(=O)O[C@H]4c3ccoc3)[C@]1(C)C2=O (stereo partly drawn) [DIHYDRO- FISSINOLIDE]    middle
CC(=O)O[C@@H]1CC2C(C)(C)[C@H](O)CC[C@]2(C)C2CC[C@@]3(C)[C@H](c4ccoc4)OC(=O)C4OC43[C@@]21C (stereo partly drawn) [3alpha- HYDROXY- DEOXO- DIHYDRO- GEDUNIN]    low
COC(=O)C(O)[C@H]1C(C)(C)[C@@H](OC(C)=O)[C@@H]2CC3=C4CC(=O)O[C@@H](c5ccoc5)[C@]4(C)CCC3[C@]1(C)C2=O (stereo partly drawn) [SWIETENOLIDE- 3-ACETATE]    high
C=C1C([C@@]2(C)[C@@H](C)CC(=O)C(C)(C)[C@@H]2C(OC(C)=O)C(=O)OC)CC[C@@]2(C)[C@H](c3ccoc3)OC(=O)C[C@]12O (stereo partly drawn) [6-ACETOXY- […] METHYL ESTER]    high
C=CCCCCCCCCCCC/C=C/C(O)COC(C)=O (stereo not drawn) [DEHYDRO- AVOCATIN - 1-ACETATE]    middle
CC(=O)O[C@@H]1CC2C(C)(C)C(=O)C=C[C@]2(C)C2CC[C@]3(C)C(=CC(=O)O[C@H]3c3ccoc3)[C@@]21C (stereo partly drawn)    middle

Source: patent US20100305068A1
